experiment_notes: background-corrected fluorescence of 3'-dye-labeled ssDNA relative to brightest sequence (3'-GCGCG) (fraction); higher = brighter dye fluorescence (less quenching)
test_settings: dye: Cy5 (3' terminal)
recorded_endpoint: background-corrected fluorescence
Lab note: record the figure alone, no unit after it.

Reference set (5 entries):
TTTTTTGATCAGCATGATGATTTTTTTTTTTTTTTCGTCC [CCTGC] :: 0.315
TTTTTTCATCATGCTCAGCATTTTTTTTTTTTTTTGGAGT [TGAGG] :: 0.537
TTTTTTCAGCATGATGAGCATTTTTTTTTTTTTTTGTCCT [TCCTG] :: 0.346
TTTTTGCATGCGCAGCATGATTTTTTTTTTTTTTTTATTC [CTTAT] :: 0.292
TTTTTTGCGCAGCAGCATGATTTTTTTTTTTTTTTATTTC [CTTTA] :: 0.307

Please examine the following record next.
Returns the measured background-corrected fluorescence for the input sequence. Input: TTTTTTGCTGCTGCTGCGCATTTTTTTTTTTTTTTAAAAT
0.462

====

experiment_notes: background-corrected fluorescence of 3'-dye-labeled ssDNA relative to brightest sequence (3'-GCGCG) (fraction); higher = brighter dye fluorescence (less quenching)
test_settings: dye: Cy5 (3' terminal)
Parameter background-corrected fluorescence: see the listing below.
Lab note: record the figure alone, no unit after it.

Reference set (3 entries):
TTTTTTGCTGATGCTCATCATTTTTTTTTTTTTTTACAGG [GGACA] :: 0.511
TTTTTGCATCATGCTGAGCATTTTTTTTTTTTTTTTGACT [TCAGT] :: 0.357
TTTTTTCAGCATGATGATGCTTTTTTTTTTTTTTTGTCCA [ACCTG] :: 0.366

Returns the measured background-corrected fluorescence for the input sequence. Input: TTTTTTGCTGCTGCTGCTGCTTTTTTTTTTTTTTTAAAAA
0.476

Same read-out for TTTTTTGATGATGCTGCTCATTTTTTTTTTTTTTTCCAAG [GAACC] ?
0.384

Same read-out for TTTTTTCAGCATCATGATGATTTTTTTTTTTTTTTGTGCC [CCGTG] ?
0.332

Same read-out for TTTTTTCAGCATCATGATCATTTTTTTTTTTTTTTGTGCG [GCGTG] ?
0.499

Same read-out for TTTTTTGCGCATCATGCTGCTTTTTTTTTTTTTTTATGAA [AAGTA] ?
0.51

Same read-out for TTTTTGCATGCGCATCATGCTTTTTTTTTTTTTTTTATGA [AGTAT] ?
0.579

Same read-out for TTTTTTGATGCTCATGAGCATTTTTTTTTTTTTTTCAGCT [TCGAC] ?
0.418

====

experiment_notes: background-corrected fluorescence of 3'-dye-labeled ssDNA relative to brightest sequence (3'-GCGCG) (fraction); higher = brighter dye fluorescence (less quenching)
test_settings: dye: Cy5 (3' terminal)
Assign class by background-corrected fluorescence: not lower than 0.4 means fulfilled; lower than 0.4 means not fulfilled.

Worked examples follow.
TTTTTTCATCATCATGATCATTTTTTTTTTTTTTTGGGCG [GCGGG] :: fulfilled
TTTTTTCATGCTGCGCAGCATTTTTTTTTTTTTTTGAATT [TTAAG] :: not fulfilled
TTTTTTCAGCAGCATCATCATTTTTTTTTTTTTTTGTTGG [GGTTG] :: fulfilled
TTTTTTGCTCATCATCAGCATTTTTTTTTTTTTTTAGGGT [TGGGA] :: fulfilled
TTTTTTGCTCATCATGATGATTTTTTTTTTTTTTTAGGCC [CCGGA] :: not fulfilled

Quick check, background-corrected fluorescence >= 0.4? TTTTTTGAGCATCATGCTGATTTTTTTTTTTTTTTCTGAC [CAGTC]
not fulfilled

Same read-out for TTTTTGCAGCATCATGATGATTTTTTTTTTTTTTTTTGCC [CCGTT] ?
not fulfilled
